test system: Human immunodeficiency virus type 1 reverse transcriptase (Human immunodeficiency virus 1, UniProt Q72547)
method notes: Inhibition of HIV-1 reverse transcriptase associated RNA-dependent DNA polymerase
pIC50: −log10 of the molar value.
quantity name: pIC50

a: O=C(Nc1nc2n(n1)C(c1ccccc1)C=C(c1ccccc1)N2)c1ccc(O)c(O)c1 (stereo unspecified)
b: COc1ccccc1C(=O)N1CCC(NC(=O)c2cc(O)c(O)c(O)c2)CC1
Looking at a and b , which one comes out lower in pIC50 terms? Reply briefly: the label of your chosen item. b

###

test system: Human immunodeficiency virus type 1 reverse transcriptase (Human immunodeficiency virus 1, UniProt Q72547)
method notes: Inhibition of N-terminal 6-his-tagged HIV-1 reverse transcriptase RNase H (427 to 560 residues) transfected in Escherichia coli BL21 (DE3)
quantity name: IC50 (µM)

O=C(Nc1nc2n(n1)C(c1ccccc1)C=C(c1ccccc1)N2)c1ccc(O)c(O)c1 (stereo not drawn); 1.86

A: CC(C)(C)c1ccc(C(=O)N/N=C/c2c(O)ccc3ccccc23)cc1
B: CC1=CC(c2ccccc2)n2nc(NC(=O)CCCc3ccc(C)cc3)nc2N1 (stereo not drawn)
Looking at A and B , which one comes out lower in IC50 terms? Reply briefly: the label of your chosen item. A
